Experiment: RP, Waters ACQUITY UPLC BEH C18, 100 × 1 mm, 1.7 µm, 50 °C, 0.3 mL/min, estimated dead time 0.17 min; A: water + 10 mM ammonium bicarbonate; B: 10% water + 90% methanol + 10 mM ammonium bicarbonate; gradient (min/%B) 0/0 15/100 21/100 22/0 30/0
Settings: stereoisomer not certain
Recorded LC retention time, one value per entry.
parameter: LC retention time (min)

[[record]]
compound = "COC(=O)c1ccc(C(F)(F)F)nc1S(=O)(=O)NC(=O)Nc1nc(OC)cc(OC)n1"
obs_value = 10.4

[[record]]
compound = "CC1COCc2cc3c(cc21)C(C)(C)C(C)C3(C)C (stereo not drawn) [Galaxolide]"
obs_value = 18.2

[[record]]
compound = "[NH3+][C@@H](Cc1cc(I)c(Oc2cc(I)c(O)c(I)c2)c(I)c1)C(=O)[O-]"
obs_value = 12.9

[[record]]
compound = "CNc1nc(NC(C)C)nc(SC)n1"
obs_value = 13.1

[[record]]
compound = "CSc1nc(NC2CC2)nc(NC(C)(C)C)n1"
obs_value = 15.4

[[record]]
compound = "CC(C)(C)C(O)C(Cc1ccc(Cl)cc1Cl)n1cncn1 (stereo not drawn)"
obs_value = 15.8

[[record]]
compound = "CCCCNC(=O)OCC#CI [3-Iodopropynyl butylcarbamate]"
obs_value = 13.2

[[record]]
compound = "Clc1nc2ccccc2s1"
obs_value = 13.8

[[record]]
compound = "CN1CCN2c3ncccc3Cc3ccccc3C2C1 (stereo not drawn)"
obs_value = 14.9

[[record]]
compound = "Cc1cc(Cl)ccc1N"
obs_value = 12.3

[[record]]
compound = "CCC1OC(=O)C(C)C(OC2CC(C)(OC)C(O)C(C)O2)C(C)C(OC2OC(C)CC(N(C)C)C2O)C(C)(OC)CC(C)C(=O)C(C)C(O)C1(C)O (stereo not drawn)"
obs_value = 16.6

[[record]]
compound = "C=CC1=C(C(=O)O)N2C(=O)C(NC(=O)C(=NOCC(=O)O)c3csc(N)n3)C2SC1 (stereo not drawn)"
obs_value = 5.67

[[record]]
compound = "Cc1cccc(Cl)c1NC(=O)N(C)C"
obs_value = 10.1

[[record]]
compound = "CNCCC(Oc1cccc2ccccc12)c1cccs1 (stereo not drawn)"
obs_value = 15.4

[[record]]
compound = "CCOc1nc2cccc(C(=O)O)c2n1Cc1ccc(-c2ccccc2-c2noc(=O)[nH]2)cc1"
obs_value = 9.52

[[record]]
compound = "COC(=O)Nc1cccc(OC(=O)Nc2cccc(C)c2)c1"
obs_value = 13.6

[[record]]
compound = "CC1CCc2cc(F)cc3c(=O)c(C(=O)O)cn1c23 (stereo not drawn)"
obs_value = 8.91

[[record]]
compound = "CCC(C)(C)C(=O)OC1=C(c2ccc(Cl)cc2Cl)C(=O)OC12CCCCC2"
obs_value = 18

